# Test system: 695427-040-R-J1-PDC complex spheroid viability;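 also: spheroids exposed to compounds for seven days; 100% = DMSO vehicle control viability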
# ASSAY_SUMMARY: Anticancer human tumor 695427-040-R-J1-PDC patient-derived colon adenocarcinoma cell line growth inhibition [POLQ]
# REPORTED_CONDITIONS: second compound 0.0316 µM; first compound 10 µM; hits give low values
QUANTITY: viability, T/C (%)
Answer in %, number only, no unit symbol.

Guide cases for viability, T/C, answers given:
Query block: Quickly give me recorded viability, T/C for CC(C)n1c(=O)n(C)c2cnc3cc(F)c(-c4ccc(OCCCN5CCCCC5)nc4)cc3c21 + Nc1ccc(C#CCN(C(=O)Cc2ncc(C(F)(F)F)cc2C(F)(F)F)c2ccc(F)cc2)nn1
Result block: 91.4

Query block: Quickly give me recorded viability, T/C for CCc1cc2c(N3CCc4c(cc(Cn5ccnc5)cc4-c4cn(C)nc4C(F)(F)F)C3=O)cc(C)nc2c(OC)n1 + Nc1ccc(C#CCN(C(=O)Cc2ncc(C(F)(F)F)cc2C(F)(F)F)c2ccc(F)cc2)nn1
Result block: 108

Now look at this entry.
Query block: Quickly give me recorded viability, T/C for CC1COCCN1c1cc(C2(S(C)(=N)=O)CC2)nc(-c2ccnc3[nH]ccc23)n1 (stereo not drawn) + COC1C(OC(N)=O)C(O)C(Oc2ccc3c(O)c(NC(=O)c4ccc(O)c(CC=C(C)C)c4)c(=O)oc3c2C)OC1(C)C
Result block: 86
